target: human Peroxisome Proliferator-activated Receptor alpha (PPARa), PPARA (gene 5465) (UniProt Q07869); test: NVS_NR_hPPARa: NovaScreen (NVS) Nuclear Receptor Binding Assay for human Peroxisome Proliferator-activated Receptor alpha (PPARa) (AID 2283359);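 further: activity means loss of TR-FRET signal versus DMSO baseline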
Sequence (Q07869 whole entry, looked up): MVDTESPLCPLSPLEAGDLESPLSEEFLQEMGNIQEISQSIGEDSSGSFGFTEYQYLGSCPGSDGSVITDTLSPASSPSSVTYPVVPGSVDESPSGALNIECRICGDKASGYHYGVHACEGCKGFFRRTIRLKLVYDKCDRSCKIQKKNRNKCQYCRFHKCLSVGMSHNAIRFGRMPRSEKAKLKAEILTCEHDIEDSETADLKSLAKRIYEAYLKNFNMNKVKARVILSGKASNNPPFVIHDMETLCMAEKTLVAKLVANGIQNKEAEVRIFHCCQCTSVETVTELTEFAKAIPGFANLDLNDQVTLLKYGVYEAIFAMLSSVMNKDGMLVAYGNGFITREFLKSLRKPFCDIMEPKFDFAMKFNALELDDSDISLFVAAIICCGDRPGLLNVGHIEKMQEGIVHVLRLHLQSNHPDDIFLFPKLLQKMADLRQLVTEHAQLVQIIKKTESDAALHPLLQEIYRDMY
Inconclusive results are not listed. Activity calls are given as the source filed them. How the source made its calls: active means hit-call score of the fitted dose curve at least 0.9, where 1 is the maximum; inconclusive means response in the unintended direction; inactive means score below 0.9.
API: response.call in active, inactive

# lookup: test call for C=CCc1ccc(OC)cc1
inactive

# lookup: test call for COP(=O)(OC)O/C(=C\Cl)c1cc(Cl)c(Cl)cc1Cl
inactive

# lookup: test call for C=C(C)C(=O)[O][Sn]([CH2]CCC)([CH2]CCC)[CH2]CCC
inactive

# lookup: test call for CCCCCCCCc1ccc(O)cc1
inactive

# lookup: test call for CCCCCCCCSC(=O)Oc1cc(Cl)nnc1-c1ccccc1
inactive

# lookup: test call for COP(=S)(OC)Oc1ccc(Sc2ccc(OP(=S)(OC)OC)cc2)cc1
active

# lookup: test call for CC(C)(c1ccccc1)c1ccc(O)c(C(C)(C)c2ccccc2)c1
inactive

# lookup: test call for O=C(O)C(F)(F)C(F)(F)C(F)(F)C(F)(F)C(F)(F)C(F)(F)F
inactive

====

experiment: APR_HepG2_CellCycleArrest_24hr: Apredica 24-hour HepG2 Assay for Cell Cycle Arrest (AID 2282905); settings: imaging, actives raise or lower the signal;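 further: cell cycle arrest scored as ratio of 2N to 4N nuclear DNA content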
Calls of active or inactive are those of the source. Rule for the calls: active = hit-call score of the fitted dose curve at least 0.9, where 1 is the maximum; inactive = score below 0.9.
API: response.call in active, inactive

# lookup: test call for O=C(O)C(F)(F)C(F)(F)C(F)(F)C(F)(F)C(F)(F)C(F)(F)F
inactive

# lookup: test call for Cn1sc(Cl)cc1=O
inactive

# lookup: test call for C=C(C)C(=O)[O][Sn]([CH2]CCC)([CH2]CCC)[CH2]CCC
inactive

# lookup: test call for CC(C)(OO)c1ccccc1
active

# lookup: test call for Oc1cccc2cccnc12
active

# lookup: test call for CC12CC1(C)C(=O)N(c1cc(Cl)cc(Cl)c1)C2=O (stereo unspecified)
inactive

# lookup: test call for CCC(C)(C)c1ccc(O)c(C(C)(C)CC)c1
active

# lookup: test call for O=C(Nc1ccc2[nH]ccc2c1)c1cc2cc(F)ccc2n1Cc1cccc(F)c1
active

# lookup: test call for CCC(=O)C(CC(C)N(C)C)(c1ccccc1)c1ccccc1 (stereo unspecified)
active

# lookup: test call for O=C(O)C(Cl)(Cl)Cl
inactive

# lookup: test call for O=c1[nH]c(=O)[nH]c(=O)[nH]1
inactive

====

read-out: Vascular cell adhesion molecule 1 (VCAM1), VCAM1 (gene 7412); test: BSK_hDFCGF_VCAM1: BioMAP Diversity Plus: hDFCGF Assay for Vascular cell adhesion molecule 1 (VCAM1) Biomarker Activity (AID 2283065); details: primary human foreskin fibroblasts; actives raise or lower the signal
Activity calls are given as the source filed them. The calls were made as follows: active = hit-call score of the fitted dose curve at least 0.9, where 1 is the maximum; inactive = score below 0.9.
API: response.call in active, inactive

# lookup: test call for CCSC(C)CC1CC(=O)C(C(CC)=NOC/C=C/Cl)=C(O)C1 (stereo not drawn)
inactive

# lookup: test call for CCC(=O)C(CC(C)N(C)C)(c1ccccc1)c1ccccc1 (stereo not drawn)
inactive

# lookup: test call for CC(C)(c1ccccc1)c1ccc(O)c(C(C)(C)c2ccccc2)c1
active

# lookup: test call for COP(=S)(OC)Oc1cc(Cl)c(Cl)cc1Cl
active

# lookup: test call for O=C1C2(Cl)C3(Cl)C4(Cl)C(Cl)(Cl)C5(Cl)C3(Cl)C1(Cl)C5(Cl)C24Cl (stereo not drawn)
active

# lookup: test call for O=[N+]([O-])c1ccc(O)c([N+](=O)[O-])c1
inactive

# lookup: test call for C[C@]12CCC(=O)C[C@@H]1CC[C@@H]1[C@@H]2CC[C@]2(C)[C@@H](O)CC[C@@H]12
inactive

# lookup: test call for CC(=O)OC(c1ccccc1)C(Cl)(Cl)Cl (stereo not drawn)
inactive

# lookup: test call for CC12CC1(C)C(=O)N(c1cc(Cl)cc(Cl)c1)C2=O (stereo not drawn)
inactive

# lookup: test call for C=CC(=O)OCCCCCC(C)C
inactive

# lookup: test call for O=C(O)C(Cl)(Cl)Cl
inactive

# lookup: test call for CC(C)(C)CC(C)(C)c1ccc(O)cc1
active

# lookup: test call for Cc1ccccc1N
inactive

The measured values listed here are drawn from PubChem BioAssay (EPA / NIEHS).
